tested on: IGROV1 ovarian; test: NCI tumour cell line growth inhibition, 48 h
property_name: TGI

A selection of reference data follows.
- compound: "O=C(N=Nc1c(O)[nH]c2c(Cl)cc(Cl)cc12)c1ccncc1"
  property_name: "TGI"
  reported_measurement: "> 100 µM"
- compound: "O=C(NCCN1CCOCC1)Nc1ccc(-c2cc3c(Nc4ccc(Oc5cccc(C(F)(F)F)c5)c(Cl)c4)ncnc3s2)cc1"
  property_name: "TGI"
  reported_measurement: "6.85 µM"
- compound: "Cn1cc2c(=O)n3ncn(-c4ccc(Br)cc4)c3nc2n1"
  property_name: "TGI"
  reported_measurement: "> 100 µM"
- compound: "CC1(C)OC(=O)C(C)(C)OC1=O"
  property_name: "TGI"
  reported_measurement: "> 100 µM"
- compound: "O=C(NCCCNC(=O)OCc1ccc2c(Br)cc(Br)c(O)c2n1)OCc1ccc2c(Br)cc(Br)c(O)c2n1"
  property_name: "TGI"
  reported_measurement: "> 100 µM"

Problem: API: value(readout=TGI, system=IGROV1 ovarian) for record CC(C)CNc1nc(N)[nH]c(=O)c1NC=O
Result: > 100 µM

Problem: API: value(readout=TGI, system=IGROV1 ovarian) for record Cc1ccc(S(=O)(=O)[N-]C2C(=O)c3ccccc3C(=O)C2[n+]2cccc(C(N)=O)c2)cc1 (centres undefined)
Result: > 100 µM

Problem: API: value(readout=TGI, system=IGROV1 ovarian) for record COC1=CC(C2c3cc4c(cc3[C@@H](Nc3ccc([N+](=O)[O-])cc3)C3COC(=O)[C@H]23)OCO4)=CC(=O)C1=O (some centres undefined)
Result: > 65.2 µM

Problem: API: value(readout=TGI, system=IGROV1 ovarian) for record COc1cc(C2CC(c3ccc4c(c3)OCO4)=NN2C(C)=O)cc(OC)c1OC (centres undefined)
Result: 97.3 µM
